FYI, the data here is from ChEMBL document CHEMBL2046392.

- tested-on: Protein arginine N-methyltransferase 5 (Homo sapiens, UniProt O14744)
- Sequence (O14744 whole entry): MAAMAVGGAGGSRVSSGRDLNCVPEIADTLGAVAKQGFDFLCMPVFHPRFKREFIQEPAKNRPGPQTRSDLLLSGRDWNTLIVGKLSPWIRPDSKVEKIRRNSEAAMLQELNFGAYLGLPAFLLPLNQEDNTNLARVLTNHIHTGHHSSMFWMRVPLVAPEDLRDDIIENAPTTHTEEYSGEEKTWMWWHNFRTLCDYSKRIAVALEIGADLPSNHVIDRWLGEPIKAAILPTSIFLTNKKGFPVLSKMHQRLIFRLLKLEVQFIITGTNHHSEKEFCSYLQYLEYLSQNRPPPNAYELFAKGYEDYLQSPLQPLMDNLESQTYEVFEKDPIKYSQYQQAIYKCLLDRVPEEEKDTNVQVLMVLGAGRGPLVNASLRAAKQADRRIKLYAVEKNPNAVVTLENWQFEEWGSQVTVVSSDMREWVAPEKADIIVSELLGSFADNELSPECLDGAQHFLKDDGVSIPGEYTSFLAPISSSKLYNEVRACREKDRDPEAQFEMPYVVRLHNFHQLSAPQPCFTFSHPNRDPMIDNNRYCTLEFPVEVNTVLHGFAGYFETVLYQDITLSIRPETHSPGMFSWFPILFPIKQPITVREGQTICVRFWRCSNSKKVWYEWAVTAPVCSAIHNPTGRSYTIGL
- method-notes: Inhibition of His6X-tagged PRMT5 expressed in Escherichia coli BL21(DE3) cells using [14C]-S-adenosyl-L-methionine and histone H4 peptide after 8 mins by scintillation counting
metric: IC50 (µM)

[[record]]
input_smiles = "CCn1/c(=C\\C=C\\C2=[N+](CC)c3cccc4cccc2c34)c2cccc3cccc1c32.[I-]"
tested_on = "Protein arginine N-methyltransferase 5 (Homo sapiens, UniProt O14744)"
metric = "IC50"
uom = "µM"
reported_measurement = 9.1

